pIC50: −log10 of the molar value.
These molecules were tested on G-protein coupled receptor 84 (Homo sapiens, UniProt Q9NQS5); pIC50 is the recorded read-out.
Sequence (Q9NQS5 whole entry): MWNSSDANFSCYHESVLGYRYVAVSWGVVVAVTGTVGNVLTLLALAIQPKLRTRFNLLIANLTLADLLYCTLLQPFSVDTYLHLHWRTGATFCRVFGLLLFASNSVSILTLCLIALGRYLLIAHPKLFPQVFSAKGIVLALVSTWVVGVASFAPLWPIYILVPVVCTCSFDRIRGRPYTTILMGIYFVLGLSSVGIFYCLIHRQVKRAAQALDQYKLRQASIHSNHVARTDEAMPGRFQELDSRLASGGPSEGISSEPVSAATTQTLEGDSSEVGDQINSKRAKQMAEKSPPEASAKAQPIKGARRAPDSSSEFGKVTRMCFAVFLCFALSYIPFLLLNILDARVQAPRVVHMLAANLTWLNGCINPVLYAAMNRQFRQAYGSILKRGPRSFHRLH

| SMI | TARGET_ENTITY | pIC50 |
| --- | --- | --- |
| COC(=O)c1cccc(-c2nc(Cc3c[nH]c4ccccc34)nnc2-c2ccccc2)c1 | G-protein coupled receptor 84 (Homo sapiens, UniProt Q9NQS5) | 6.40 |
| COC(=O)c1cccc(-c2nnc(Cc3c[nH]c4ccccc34)nc2-c2ccccc2)c1 | G-protein coupled receptor 84 (Homo sapiens, UniProt Q9NQS5) | 6.94 |

###

- ASSAY_REMARKS: Protein binding in mouse plasma assessed as unbound fraction
- Format: ADME, cell-free

| SMI | fraction unbound |
| --- | --- |
| c1ccc(-c2nc(Cc3c[nH]c4ccccc34)nnc2-c2ccc(CN3CCOCC3)cc2)cc1 | < 0.01 |
| c1ccc(-c2nnc(Cc3c[nH]c4ccccc34)nc2-c2ccccc2)cc1 | < 0.01 |
